procedure.text: RAM signaling pathway blockade in yeast – S. cerevisiae, Pdr1DBD-CYC8 efflux-inhibited sensitized strain, primary screen (AID 1298);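 also: 0% = DMSO untreated cells without growth and 100% = 10 µM 1-NA-PP1 full growth; higher means more yeast growth rescued from 5-FOA killing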
measurement.conditions: S. cerevisiae cbk1-as DSE1-URA3 strain, 5-FOA growth OD615, 2 d; at 50 µM; hits give high values
Active and inactive are the calls of the source.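 The calls were made as follows: active = RAM network inhibition above 8.4% in each of two replicates, 3 SD over the compound average; inconclusive = above 8.4% inhibition in only one replicate; inactive = 8.4% inhibition or less in each replicate.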
property.measured: RAM network inhibition

Use the examples below as a reference point.
>>> recorded_measurement("Cc1ccc(OCC(O)CN2C(=O)NC(C)(C)C2=O)cc1C (stereo unspecified)")
"4.18% (inactive)"
>>> recorded_measurement("COc1cccc(-n2c(SCC(=O)Nc3cc(C)on3)nc3c([nH]c4ccccc43)c2=O)c1")
"1.62% (inactive)"
>>> recorded_measurement("CCN1C(=O)c2cccc3c(NC(=O)c4ccc(S(=O)(=O)N(C)C)cc4)ccc1c23")
"3.52% (inactive)"
>>> recorded_measurement("CCc1ccc(C(=O)NC2CCCCC2)s1")
"4.77% (inactive)"
>>> recorded_measurement("CC(=O)Nc1nc(-c2ccccc2)nc(C)c1C(C)=O")
"5.92% (inactive)"

Data request: Param item = COc1ccc(C)cc1NS(=O)(=O)c1cccc2nonc12 ; retrieve measured RAM network inhibition.
Data returned: 4.42% (inactive)

Data request: Param item = O=C(NCCc1cccc(Cl)c1)c1cccnc1 ; retrieve measured RAM network inhibition.
Data returned: 1.21% (inactive)

Data request: Param item = CCOC(=O)N1CCN(C(=O)COc2ccc(Br)cc2)CC1 ; retrieve measured RAM network inhibition.
Data returned: 6.68% (inactive)

Data request: Param item = CCOc1ccc(-n2c(SCC(N)=O)nc3c([nH]c4ccccc43)c2=O)cc1 ; retrieve measured RAM network inhibition.
Data returned: 11.2% (inactive)

Data request: Param item = CCN(CC)CCCNC(=O)c1cn(C)c2ccc(S(=O)(=O)N(C)C)cc2c1=O ; retrieve measured RAM network inhibition.
Data returned: 1.85% (inactive)

Data request: Param item = Clc1cccc(-c2nnc(-c3ccccc3)o2)c1 ; retrieve measured RAM network inhibition.
Data returned: 0.25% (inactive)

---

procedure.text: growth suppression of yeast trafficking mutant, preliminary HTS, modulators of trafficking downstream of Golgi apparatus project, 1536-format plate, OD 615 nm (AID 637)
measurement.conditions: yeast transport mutant growth, absorbance 615 nm, 18 h; hits give high values
property.measured: inhibition (%)
Field: numeric (%). Do not append units.

Use the examples below as a reference point.
>>> recorded_measurement("CC1CCN(c2nc3c(c(=O)[nH]c(=O)n3C)n2CCSc2ncccn2)CC1")
-5.17
>>> recorded_measurement("CC1(C)CC(=O)C(C=NCC2CCNCC2)=C(O)C1")
1.67
>>> recorded_measurement("CCc1nc2sc(C)c(C)c2c(=O)n1CCO")
-3.67

Data request: Param item = Cc1ccc2nc(NC(=O)Cn3cc4c(n3)CCCCC4)sc2c1 ; retrieve measured inhibition.
Data returned: -4.67

Data request: Param item = O=C(COC(=O)C1(c2ccccc2F)CCCC1)NC1CCS(=O)(=O)C1 (stereo unspecified) ; retrieve measured inhibition.
Data returned: -2.06

Data request: Param item = COc1ccc(NC(=O)C2CCCCN2S(=O)(=O)c2ccc(F)cc2)cc1 (stereo unspecified) ; retrieve measured inhibition.
Data returned: 1

---

procedure.text: viability of HCT116 without oncogenic beta-catenin – human colon tumor cells, pilot screen (AID 823);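 also: 0% = wells killed by 20 µM Hyamine and 100% = untreated DMSO cell wells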
measurement.conditions: HCT116 beta-catenin knockout viability, CellTiter-Glo, 60 h; at 10 µM; hits give low values
Results filed as inconclusive are left out.
property.measured: viability (%)
Field: numeric (%). Do not append units.

>>> recorded_measurement("COc1ccc(NC(=O)CN2C(=O)CC(C)(C)S(=O)(=O)c3ccccc32)cc1")
104
>>> recorded_measurement("Cc1cc(OCC(=O)NCCO)cc(C)c1Cl")
99.1
>>> recorded_measurement("CC(=O)NC(CCS(C)(=O)=O)C(=O)Nc1cccc(C)c1 (stereo not drawn)")
103
>>> recorded_measurement("COc1ccc(C2C(C(C)=O)=C(O)C(=O)N2CCN(C)C)cc1OC (stereo not drawn)")
92.6
>>> recorded_measurement("Cc1cc(C)nc(NC2=NCC(=O)N2c2ccccc2Br)n1")
95.4
>>> recorded_measurement("NC(=O)C1(N2CCCCC2)CCN(C(=O)c2ccccc2)CC1")
103

Data request: Param item = CCCCSc1nc2c(cnn2-c2ccc(F)cc2)c(=O)[nH]1 ; retrieve measured viability.
Data returned: 104

Data request: Param item = CC1CCN(C(=O)CSc2nnc(Cn3c(=O)sc4ccccc43)n2C)CC1 ; retrieve measured viability.
Data returned: 121

Data request: Param item = COc1ccc(C2N(c3cc(Cl)ccc3OC)C(=O)C3CCCN32)cc1 (stereo not drawn) ; retrieve measured viability.
Data returned: 106

Data request: Param item = COc1ccc(OC)c(C2CC(=O)NC(SC)=C2C#N)c1 (stereo not drawn) ; retrieve measured viability.
Data returned: 104

Data request: Param item = COc1ccc(-n2c(Cc3cccn3C)nnc2SCC(=O)Nc2ccccc2C)cc1 ; retrieve measured viability.
Data returned: 86

Data request: Param item = Cc1nc2ccc(S(=O)(=O)NC(C(=O)N3CCC(C)CC3)C(C)C)cc2s1 (stereo not drawn) ; retrieve measured viability.
Data returned: 93.9

Data request: Param item = COc1ccccc1CNC(=O)COC(=O)c1ccc(NC(N)=O)cc1 ; retrieve measured viability.
Data returned: 96.5

Data request: Param item = CCc1ccc(N2CC(C(=O)OCC(=O)NC3CCS(=O)(=O)C3)CC2=O)cc1 (stereo not drawn) ; retrieve measured viability.
Data returned: 96.5

Data request: Param item = O=C1CC(c2cccnc2)c2cc3c(cc2N1)OCO3 (stereo not drawn) ; retrieve measured viability.
Data returned: 105

Data request: Param item = CN(C)c1ccc(NC(=O)Cn2cc3c(n2)CCCC3)cc1 ; retrieve measured viability.
Data returned: 64.2

Data request: Param item = CCc1ccc(C2CC(c3cccc(OC)c3)n3nc(N)nc3N2)cc1 (stereo not drawn) ; retrieve measured viability.
Data returned: 93.3

Data request: Param item = Oc1ccc(Cl)cc1-c1cc(-c2ccccc2)n[nH]1 ; retrieve measured viability.
Data returned: 16

Data request: Param item = Cn1c(=O)[nH]c(=O)c2c1nc(N1CCCCC1)n2CCSc1nc2ccccc2o1 ; retrieve measured viability.
Data returned: 90.7

Data request: Param item = C=CCn1c(=O)c2c(nc3n2CC(C)CN3c2cccc(OC)c2)n(C)c1=O (stereo not drawn) ; retrieve measured viability.
Data returned: 97.7

---

procedure.text: S. cerevisiae growth inhibition in restrictive medium, OD615, pilot screen, restrictive growth control, yeast lifespan reduction project (AID 706);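 also: modified DeaD lifespan yeast strain shifted to restrictive glucose medium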
measurement.conditions: OD615, 48 h, at 10 µM, hits give high values
property.measured: growth inhibition (%)
Field: numeric (%). Do not append units.

Use the examples below as a reference point.
>>> recorded_measurement("O=C(OCn1nnc2ccccc2c1=O)c1cc2ccccc2o1")
-2.58
>>> recorded_measurement("COc1ccc(C2CC(c3ccco3)n3ncnc3N2)cc1 (stereo unspecified)")
1.61
>>> recorded_measurement("O=C(Nc1ccc(CN2CCOCC2)cc1)c1cc2ccccn2n1")
7.87
>>> recorded_measurement("O=C(NCCSc1c[nH]c2ccccc12)c1ccc(Br)o1")
-12.6
>>> recorded_measurement("CC1=C(C(=O)OCc2ccccc2)C(c2ccco2)n2ncnc2N1 (stereo unspecified)")
-3.8

Data request: Param item = COc1ccc(OC)c(C2C(C(N)=O)=C(C)Nc3nc(CCCO)nn32)c1 (stereo unspecified) ; retrieve measured growth inhibition.
Data returned: -20.6

---

procedure.text: RAM signaling pathway blockade in yeast – S. cerevisiae, Pdr1DBD-CYC8 efflux-inhibited sensitized strain, primary screen (AID 1298);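 also: 0% = DMSO untreated cells without growth and 100% = 10 µM 1-NA-PP1 full growth; higher means more yeast growth rescued from 5-FOA killing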
measurement.conditions: S. cerevisiae cbk1-as DSE1-URA3 strain, 5-FOA growth OD615, 2 d; at 50 µM; hits give high values
Let's look at some compounds and their measured RAM network inhibition.
Field: numeric (%). Do not append units.

Use the examples below as a reference point.
>>> recorded_measurement("c1ccc2c(c1)nc(NCCN1CCOCC1)c1nncn12")
-0.1
>>> recorded_measurement("CC1(C)CC2CC(C)(CN2S(=O)(=O)c2ccc(N)cc2)C1 (stereo unspecified)")
9.14
>>> recorded_measurement("CN1CCN(c2nc3c(c(=O)[nH]c(=O)n3C)n2CCSc2nc3ccccc3s2)CC1")
-1.87
>>> recorded_measurement("Cn1cnc2cc(NC(=O)c3ccc(Cl)cc3)ccc21")
-1.41
>>> recorded_measurement("Cc1nnc(SCC(=O)NCc2ccccc2)s1")
4.69

Data request: Param item = Cc1ccccc1N1C(=O)c2cccc3c(N(C)CCO)ccc(c23)C1=O ; retrieve measured RAM network inhibition.
Data returned: 2.12

Data request: Param item = Cc1ccc(N(C(=O)C2CCC(=O)N2)C2(C(=O)NC3CCCCC3)CCCCC2)cc1 (stereo unspecified) ; retrieve measured RAM network inhibition.
Data returned: 1.79
